# subject-of-test: human TRPV1 (Homo sapiens)
# Sequence (Q8NER1 whole entry): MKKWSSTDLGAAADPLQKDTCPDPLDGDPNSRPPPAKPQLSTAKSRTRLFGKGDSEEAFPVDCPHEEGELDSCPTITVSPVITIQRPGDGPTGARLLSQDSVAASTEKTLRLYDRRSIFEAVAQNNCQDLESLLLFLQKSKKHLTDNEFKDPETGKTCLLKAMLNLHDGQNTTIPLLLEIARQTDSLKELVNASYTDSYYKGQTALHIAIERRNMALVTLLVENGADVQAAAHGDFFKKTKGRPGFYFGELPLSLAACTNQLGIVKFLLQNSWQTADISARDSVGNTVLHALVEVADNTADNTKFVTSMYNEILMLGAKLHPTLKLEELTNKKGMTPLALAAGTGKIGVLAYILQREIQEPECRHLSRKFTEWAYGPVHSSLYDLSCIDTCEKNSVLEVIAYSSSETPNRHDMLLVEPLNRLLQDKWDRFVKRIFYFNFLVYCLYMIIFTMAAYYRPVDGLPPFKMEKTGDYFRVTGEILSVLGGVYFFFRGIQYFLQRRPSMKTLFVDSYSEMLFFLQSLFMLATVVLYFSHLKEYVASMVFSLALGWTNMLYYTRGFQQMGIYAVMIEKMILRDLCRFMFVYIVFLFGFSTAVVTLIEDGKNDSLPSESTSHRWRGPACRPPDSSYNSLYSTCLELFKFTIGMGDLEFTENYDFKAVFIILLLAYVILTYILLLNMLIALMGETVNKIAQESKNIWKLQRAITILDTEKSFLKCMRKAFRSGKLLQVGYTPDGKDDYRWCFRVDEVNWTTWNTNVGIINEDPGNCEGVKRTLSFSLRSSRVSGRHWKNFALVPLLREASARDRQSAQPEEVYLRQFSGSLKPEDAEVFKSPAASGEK
# procedure-summary: Functional assay: block of capsaicin-induced Ca2+ influx, human assay (hTRPV1/HEK293, FLIPR)
# stated-conditions: hTRPV1/HEK293 cells, 150 nM capsaicin challenge, Fluo-3 fluorescence; mean; > value = solubility limit in assay medium
Provide the recorded pIC50 for the entries that follow.
Convention used: pIC50 is expressed as -log10 of the molar concentration.

Q: State its pIC50 for this molecule: Cc1nc(Nc2ccc(S(=O)(=O)N(C)C)cc2)c2nc(Nc3c(C)cccc3C)sc2n1 [Example 85]
Ans: 8.40

Q: Look up and report measured pIC50 for this entry: O=S(=O)(c1ccc(Nc2ncnc3sc(Nc4c(Cl)cccc4Cl)nc23)cc1)N1CCNCC1 [Example 134]
Ans: 6.69

Q: Please report the measured pIC50 for CC(C)Nc1nc(Nc2ccc(C(F)(F)F)cc2)c2nc(Nc3c(Cl)cccc3Cl)sc2n1 [Example 101]
Ans: 7.74

Q: Query pIC50 for Cc1ccc(Nc2ncnc3sc(Nc4c(C)cccc4C)nc23)cc1F [Example 148]
Ans: 6.13
